target-or-test-system: Prothrombin (Bos taurus) (UniProt P00735)
assay-remarks: Inhibition of bovine plasma thrombin using Boc-Val-Pro-Arg-AMC as substrate at 25 uM preincubated for 15 mins measured after 10 mins by fluorimetric assay
Calls of active or inactive are those of the source. The calls are words filed in the database; no cut-off is given here.
readout-name: inhibition

Study these solved cases before continuing.
Challenge: Look at this molecule and give its reported inhibition. `O=C1NC(=S)N/C1=C\c1ccc(Cl)s1`
Response given: 29%

Challenge: Look at this molecule and give its reported inhibition. `CC(=O)n1cc(/C=C2\SC(=S)NC2=O)c2ccccc21`
Response given: 31%

Challenge: Look at this molecule and give its reported inhibition. `COc1ccccc1/C=C1\NC(=O)NC1=O`
Response given: inactive

Challenge: Look at this molecule and give its reported inhibition. `CC(=O)N1C(=S)NC(=O)[C@@H]1Cc1ccc(O)cc1`
Response given: inactive

Challenge: Look at this molecule and give its reported inhibition. CCCC/C=C/C1SC(=S)NC1=O (stereo unspecified)
Response given: inactive

Challenge: Look at this molecule and give its reported inhibition. `O=C1NC(=S)S/C1=C1/CCOc2ccccc21`
Response given: 18%

Items follow; give inhibition for each.
1. O=C1NC(=O)C(Cc2ccccc2)S1 (stereo unspecified)
2. CCC/C=C/C1NC(=S)NC1=O (stereo unspecified)
3. COc1cccc(/C=C2\NC(=O)NC2=O)c1
4. CC(=O)N1C(=S)NC(=O)[C@H]1Cc1ccccc1
5. COc1ccc(/C=C2\SC(=S)NC2=O)cc1

Response given:
["inactive", "14%", "inactive", "inactive", "16%"]

Cited source: ChEMBL document CHEMBL1955761
